- System: bacterial pathogens resistant against quinolones antibiotics
- ASSAY_PROTOCOL: MIC against quinolone-resistant bacterial pathogens (Table 5)
- Format: cell-based
- CONDITION_DETAILS: Streptococcus pneumoniae, read-out: MICs, Streptococcus pneumoniae multi-drug resistant clinical isolate, GP24
Where a name gives a salt, the structure may show the parent alone.
Collected MIC values appear next to each entry.
Hi! Could you send only the number? It should be in µg/mL, unit omitted.

Field: example entries. Status: answers known.
>>> print(df.to_string())
                                   compound  value
0  Cc1c(-c2ccc(O)cc2)ccn2c(=O)c(C(=O)O)cc(C3CC3)c12 [Example 46 K salt]   0.12
1  Cc1c(-c2ccc(N)nc2)ccn2c(=O)c(C(=O)O)cc(C3CC3)c12 [Example 21 K salt]   0.12
2  Cc1c(-c2ccc3[nH]ncc3c2)ccn2c(=O)c(C(=O)O)cc(C3CC3)c12 [Example 23 K salt]   0.03
3  Cc1c(-c2cc(F)c(N)cc2F)ccn2c(=O)c(C(=O)O)cc(C3CC3)c12 [Example 28 K salt]   0.06

Consider the record given below.
Which MIC is reported for this compound? Cc1c(-c2ccc(N)c(F)c2)ccn2c(=O)c(C(=O)O)cc(C3CC3)c12 [Example 2 K salt] 0.12
